# System: HCT-116 colorectal cancer cells
# measurement_protocol: MTT cytotoxicity assay, HCT-116
# Format: cell-based
# assay_conditions: 48 h, mean ± SD of three experiments, NA = no or negligible activity in initial crystal violet screening, read-out: IC50 Colon HCT-116
# Method: The cytotoxic activity of the new synthesized compounds was tested in different mammalian cancer cells, breast cancer (+ve ER) (MCF-7), breast cancer (−ve ER) (MDA-MB-231), tongue (oral cancer) (SAS), prostate cancer (PC-3), colorectal cancer (HCT-116) and hepatocellular carcinoma (HuH-7 and HepG-2). The cell lines were obtained from the American Type Culture Collection (ATCC). […] The viability of the cells were determined by using the MTT reagent. […]
measured_attribute: pIC50
Answers are plain numbers, as −log10 of the molar value.

# lookup: pIC50 of N.N.[Cl][Pt][Cl] [Cisplatin, reference compound]
5.10
